assayed.system: T1, human PD-1 (soluble PD-1 protein, R&D Systems) (human, UniProt Q15116 25-170, limits assumed)
T1 construct: the kinetics paragraphs say only 'PD-1' / 'antigen'; also called hPD-1; soluble PD-1 immunogen
T1 sequence (Q15116 25-170 limits assumed): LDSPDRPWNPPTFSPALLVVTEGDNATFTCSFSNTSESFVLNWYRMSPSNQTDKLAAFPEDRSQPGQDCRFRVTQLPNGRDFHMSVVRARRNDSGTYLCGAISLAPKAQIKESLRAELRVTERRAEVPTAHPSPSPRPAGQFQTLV
procedure.summary: BLI, mAb on AHC biosensor, PD-1 as analyte
assay.endpoint: Kd (nM)
Unit nM implied. Number only.

QUERY: Please indicate Kd recorded for A18 (antibody, V domains shown, Tested as full-length mAb expressed in CHO cells; also called antibody 18; L18H18) VH: QVQLVQSGTEVKKPGASVKVSCQASGYTFTSYDISWVRRAPGQGLEWMGWISAYNGNTNYAQKLQGRVTLTTDTSTSTAYMELRSLRSDDTAVYYCARRYYDILTEGGYYYVLDVWGQGTTVTVSS VL: AIRMTQSPSSFSASTGDRVTITCRASQGISSYLAWYQQKPGKAPTLLIYAASTLQSGVPSRFSGSGSGTDFTLTISCLQSEDFATYYCQQYYSDPPTFGQGTKVEIK
RESULT: 18.4

QUERY: Please indicate Kd recorded for A16 (antibody, V domains shown, Tested as full-length mAb expressed in CHO cells; also called antibody 16; L16H16) VH: QVQLVESGGGVVQPGRSLTLSCAASGFTFSNYGMYWVRQAPGKGLEWVAVIWYDGSNKYYADSVKGRFTISRDNSKNTLYLQMNSLRAEDTAVYYCAGGGSYSGDYWGQGTLVTVSS VL: DIQMTQSPSSLSASVGDRVTITCRTSQDIRNDLGWYQQKPGKAPKRLIYAVSSLQSGVPSRFSGSGSGTEFTFTISSLQPEDFATYYCLQYNTYPFTFGPGTTVDIK
RESULT: 86

QUERY: Please indicate Kd recorded for A24 (antibody, V domains shown, Tested as full-length mAb expressed in CHO cells; also called antibody 24; L24H24) VH: QVQLVESGGGVVQPGRSLRLSCAASGFTFSDSGMHWVRQAPGKGLEWVAVIWYDGSKKYYVDSVKGRFTISRDNSKNTLYLQMNSLRAEDTAVYYCATEGDYWGQGTLVTVSS VL: EIVMTQSPATLSVFPGERATLSCRASQSVSSNLGWYQQKPGQAPRLLMYGASTRVTGIPARFSGSGSGTEFTLTISSLQSEDFAVYYCQQYNTWPRTFGQGTKVEIK
RESULT: 8.5

QUERY: Please indicate Kd recorded for A26 (antibody, V domains shown, Tested as full-length mAb expressed in CHO cells; also called antibody 26; L26H26) VH: QVQLVESGGGVVQPGRSLRLSCAASGFTFSDYGMHWVRQAPGKGLEWVAVIWYDGSNKYYTDSVKGRFTISRDNSKNTLYLQMSSLRAEDAAVYYCAVNPFDYWGQGTLVTVSS VL: DIQMTQSPSSLSASVGDRVTISCRASQGISNYLAWYQQKPGKVPKVLIYGASTLQSGVPSRFSGSGSGTDFTLTISSLQPEDVATYYCQKYNSAPYTFGQGTKLEIK
RESULT: 6

QUERY: Please indicate Kd recorded for A12 (antibody, V domains shown, Tested as full-length mAb expressed in CHO cells; also called antibody A12; L12H12) VH: QVQLVESGGGVVQPGRSLRLSCAASGFTFSSYGMHWVRQAPGKGLEWVAVIWYDGSNKYYADSVKGRFTISRDNSKNTLYLQMNSLRAEDSAVYYCVCNPFDYWGQGTLVTVSS VL: DIQMTQSPSSLSASVGDRVTVTCRSSQGIAHYLAWYQQKPGKVPKVLLYAASTLQSGVPSRFSGSGSGTDFTLTISSLQPEDVATYYCQKYNSAPYTFGQGTKLEIK
RESULT: 5.1

***
QUERY: Please indicate Kd recorded for A27 (antibody, V domains shown, Tested as full-length mAb expressed in CHO cells; also called antibody 27; L27H27) VH: QVQLVQSGAELVRPGTSVKLSCRASGYTFTTYWMHWVKQRPGQGLEWIGVIDPSDSYTYYNQKFKGKATLTVDTSSSTAYMQLSSLTSEDSAVYFCARNWDYWGQGTTLTVSS VL: AIQLTQSPSSLSASVGDRVTITCRASQGISSALAWYQQKPGKAPKLLIYDASSLESGVPSRFSGSGSGTDFTLTISSLQPEDFATYYCQQFNDYALTFGGGTKVEIK
RESULT: 13.8

QUERY: Please indicate Kd recorded for A17 (antibody, V domains shown, Tested as full-length mAb expressed in CHO cells; also called antibody 17; L17H17) VH: QVQLVESGGGVVQPGRSLRLSCAASGFTFSSYGMHWVRQAPGKGLEWVAVIWYDGSNQYYADSVKGRFTISRDNSKNTLFLQMNSLRAEDTAVYFCAGGGNYYGDFWGQGTLVTVSS VL: DIQMTQSPSSLSASVGDRVTITCRASQGIRNDLGWYQQKPGKAPKRLIYAASSLQSGVPSRFSGSGSGTEFTLTISSLQPEDFATYYCLQYISYPWTFGQGTKVEIK
RESULT: 326

QUERY: Please indicate Kd recorded for A28 (antibody, V domains shown, Tested as full-length mAb expressed in CHO cells; also called antibody 28; L28H28) VH: QVQLVESGGGLVKPGGSLKLSCAASGFTFSDYGMHWVRQAPEKGLEWVAYISSGSFAIYYADTVRGRFTISRDSAKNTLFLQMTSLRSEDTAMYYCARRGPYPYYYSMDYWGQGTSVTVSS VL: AIQMTQSPSSLSASVGDRVTITCRASQGISSALAWYQQKPGKAPKLLIYAASTLQSGVPSRFSGSGSGTDFTLTISSLQPEDFATYYCLQDYNYPWTFGQGTKVEIK
RESULT: 23.8

QUERY: Please indicate Kd recorded for A23 (antibody, V domains shown, Tested as full-length mAb expressed in CHO cells; also called antibody 23; L23H23) VH: QVQLVESGGGVVQPGRSLRLSCVASGFTFSNYGMHWVRQAPGKGLEWVAIIWYDGSIKYYADSVKGRFTISRDNSKNTLHLQMNSLRAEDTAVYYCARWGIYFDYWGQGTLVTVSS VL: EIVMTQSPATLSVSPGERATLSCRASQSVSSNLAWYQQKPGQAPRLLIYGASTRATGIPARFSGSGSGTEFTLTISSLQSEDFAVYYCQQYHNWPLTFGGGTKVEIK
RESULT: 83.8

QUERY: Please indicate Kd recorded for A25 (antibody, V domains shown, Tested as full-length mAb expressed in CHO cells; also called antibody 25; L25H25) VH: QVQLVESGGGVVQPGRSLRLSCAASGFTFSSYGMHWVRQAPGKGLEWVGVIWYDGSIKYYADSVKGRFTISRDNSMNTLNLQMNSLRAEDTAVYYCAGDILTGSFDYWGQGTLVTVSS VL: EIVLTQSPATLSLSPGERATLSCRASQSVSSYLAWYQQKPGQAPRLLIYDASNRATGIPARFSGSGSGTDFTLTISSLEPEDFAVYYCQQRNNWPYTFGQGTKLEIK
RESULT: 792

// provenance: patent US20220064302A1
